# System: IL-6
# measurement notes: In vivo tolerability by IV: serum IL-6 by Luminex
# Design: species or system C57BL/6J mice
# assay context: Formulation No. 001, RNA No. 331, male C57BL/6J mice, 1.0 mg*kg/1 intravenous, 2 hours post injection
# Experimental: 6-8 week old, male C57BL/6J mice (N=3) were injected with 1.0 mg*kg/1 of RNA-LNPs encoding for firefly-luciferase by intravenous injection. At 2- and 24-hours post injection, about 40 μL blood was harvested and immediately added to the procoagulant containing tube. Stand for 30 min at room temperature and then centrifuged at 2500 g×10 min to obtain serum. About 15 μL serum samples were aliquoted for cytokine (MCP-1 and IL-6) detection by Luminex (ProcartaPlex Mouse 2-plex, Thermo). […]
value type: IL-6 at 2 h (pg/mL)
Report the figure in pg/mL without appending any unit label.

Output reported IL-6 at 2 h of the molecule CCCCC/C=C\CCOC(=O)CCCCCOC(=O)C(COC(=O)NCCN1CCCCC1)NC(=O)OCCCCCCCCOC(=O)C(CCCCCC)CCCCCCCC (stereo not shown) [Lipid 954] on IL-6.
4220

---
// fetch IL-6 at 2 h; item: CCCCC/C=C\C/C=C\CCCCCCCCOC(=O)C(COC(=O)NCCN1CCCCC1)NC(=O)OCCCCCCCCOC(=O)C(CCCCCC)CCCCCCCC (stereo not shown) [Lipid 918] ; system: IL-6
9.3

// fetch IL-6 at 2 h for CCCCC/C=C\C/C=C\CCCCCCCCOC(=O)NC(COC(=O)NCCN1CCCCCC1)C(=O)OCCCCCC(=O)OCC(CCCCCCCC)CCCCCCCCCC (stereo not shown) [Lipid 911] ; system: IL-6
28.5

State IL-6 at 2 h on IL-6. Entry: CCCCCCCC/C=C\CCCCCCCC(=O)NC(COC(=O)NCCN1CCCCC1)C(=O)OCCCCCC(=O)OCC(CCCCCCCC)CCCCCCCCCC (stereo not shown) [Lipid 792]
25.9

Report IL-6 at 2 h from IL-6 testing of CCCCCCCCCC(=O)OCCCCCCCOC(=O)C(COC(=O)NCCN1CCCCC1)NC(=O)OCCCCCCCCOC(=O)C(CCCCCC)CCCCCCCC (stereo not shown) [Lipid 933]
68.4

Write down the reported IL-6 at 2 h (system: IL-6) of CCCCCCCC/C=C\CCCCCCCC(=O)NC(COC(=O)NCCN1CCCCC1)C(=O)OCCCCCCCC(=O)OC(CCCCCCCC)CCCCCCCC (stereo not shown) [Lipid 736]
442

Recorded values, source patent US20260200849A1.
